- Procedure text: folding stability dG unfold (combined trypsin and chymotrypsin); higher = more stable
Readout label: folding stability dG unfold (kcal/mol)
I only need the number, in kcal/mol, no unit after it.

Example sequences with recorded folding stability dG unfold:
| Residue sequence | Test result |
| --- | --- |
| SPNLKPVEFPIKIPGYKIRRVSIWKSPDGPVEIFVRFPDGWYYEFEIPPNGDIQPMKITEAVPPDEDKKNSA [r9_1075_TrROS] | 1.38 |
| SAGGSAGGSEKKPPEVTVVIKLPKGTSLEELLAALPPGAKAEIVEVVKVDEEKNEVYVKIRLTSAGGSAGGS [r12_469_TrROS_Hall] | 2.61 |

Ask | Consider the sequence shown here: SAGGSAGGSMTITVTKVDFPPGLYEGLTIEELRKLLGDENLPIKETPVTVTVTPEKLAALLLSSAGGSAGGS [r12_178_JUSTAS] What is its recorded folding stability dG unfold?
Reply | 1.36

Ask | GET /values?readout=folding stability dG unfold&item= SAGGSAPLPPGAVVEIVEVRFDPETRRIEMVVKVYDANGELVATLRVELEFDPETNELTLRVELLPSAGGSA [r15_1028_TrROS_Hall]
Reply | 4.23

Ask | folding stability dG unfold lookup needed for SAMKTYTLPNATITVETLPGDNTIVVTVTDPESGKTTTTTVSLDDPSLTIENIIARIEEQIKAGKPVSLSAG [r14_157_JUSTAS] , thanks.
Reply | 2.16

Ask | Recorded folding stability dG unfold of SAGGSANWYIKITIEYPNGREWEIPFPFKSVEDVKDQIKNAAREYFPNLPPEDVKIDDIELYPLDDSAGGSA [r15_220_TrROS] , please.
Reply | 1.83

* * *

- Procedure text: folding stability dG unfold (combined trypsin and chymotrypsin); higher = more stable
The sequences listed here are annotated with their folding stability dG unfold.

Here are 2 sequences together with their reported answers.
| Residue sequence | Test result |
| --- | --- |
| SAGGSAGGSAGGSVEIRDARIELGDNTLRIEISFPDGGTRRIEIEVEPVPPLPPSLLDRSAGGSAGGSAGGS [r4_372_TrMRF] | < -1 kcal/mol |
| SAGGSAGGSAGMKKLVKITARVPDEKGNPILVEYEEEVDLKPSDSLPVPEGVLEEIEILESAGGSAGGSAGG [r11_664_JUSTAS] | < -1 kcal/mol |

Ask | Please give the measured folding stability dG unfold for this sequence: SAGEERTVRVEIEIVVKTEEELEALKALFPNAEATRNEDGLLTLRLTIEVRVAPPVVVRDPETNELLELSAG [r5_129_TrROS_Hall]
Reply | 2.46 kcal/mol

Ask | What folding stability dG unfold value was documented for this sequence, SAGGSAGGSAGKDIAKNIPPGAKILPIEPQPRGGGLYVKIEIEMPDPNGKKEKVTFTFPISAGGSAGGSAGG [r17_140_TrROS] ?
Reply | 0.366 kcal/mol

* * *

- Procedure text: folding stability dG unfold from trypsin proteolysis; higher = more stable
This section presents sequences with their documented folding stability dG unfold values.
Answer in kcal/mol, number only, no unit symbol.

Ask | folding stability dG unfold for SAGSPETVTLPLTVTLPPGVPLSQIEAVLKKNGFTELEITASPTPDGTLRYAIDATMPVSVVEKLIKALSAG [r5_376_JUSTAS] ?
Reply | 1.8

Ask | Please look up its folding stability dG unfold: SAGKITITVEKNEDGELTVTIRIEKDGKPIEEITFESEEEALEAAKKLAEELKKKYPDLKIEVEIVPRPSAG [r5_383_TrROS_Hall]
Reply | 3.47

Ask | What does the data say about its folding stability dG unfold? Entry: SAGGSAGGKKIEMKIIKNEDGTKLIVFKSKEEAEEALKKAGYEVKIVSVNEEKGYVVIEIRKKKSAGGSAGG [r6_510_TrROS_Hall]
Reply | 1.17

Ask | Name the reported folding stability dG unfold value associated with the sequence SAGGLEILEVDPDTYTITIRFGDRPLEFTVPPDYPPTITITEDPDGSVTLTIEVPDRTETFTIPRELVESAG [r5_500_TrMRF]
Reply | 1.18

Ask | What does the record list as folding stability dG unfold for SAGGSAGGSAGGDPLPVTFTIPLEDDTTAKAVLSGDLVEVTIPNGKKYVLIPNPAVLGSSAGGSAGGSAGGS [r10_1176_TrMRF] ?
Reply | -0.144

Ask | May I ask what folding stability dG unfold has been recorded for SAGGSMTLEELKNMTVEELRELLGEDAEVTVDEETGTITIRVPGKEVTIEVDEETGEVKIVEVKPVSAGGSA [r2_470_TrROS_Hall] ?
Reply | 3.31

* * *

- Procedure text: folding stability dG unfold from trypsin proteolysis; higher = more stable
Readout label: folding stability dG unfold (kcal/mol)
Answer in kcal/mol, number only, no unit symbol.

| Residue sequence | folding stability dG unfold (kcal/mol) |
| --- | --- |
| SAGGSAGGSAGGSSTAVIRRPETGEEHTFDLPEDATEEDIRARLEAAGFPPGSEIVEIVESAGGSAGGSAGG [r7_70_JUSTAS] | 1.21 |
| SAGGSITKTLGTEEKGDKTITYSVTTSPEGKITFTTTTKTPSGSGTSTTTTTTTTPLAGLPLPPLGGSAGGS [r8_458_JUSTAS] | 0.473 |
| SAMKPGEKVKIKIITFEKKKDPKTGEEKIEMKEIEIEATITEVEEKDGKVTVKIKIENLPPGAMIIIEKSAG [r14_412_TrROS_Hall] | 2.05 |

Proceeding to the next sequence to report its folding stability dG unfold.
Ask | Quick one: folding stability dG unfold of SAGGSAGGSAGGSKPKKIKVETVTLEDGLTLQVVVNEDTKEKVIVLVPPSEEVTVLVEPSAGGSAGGSAGGS [r4_99_TrROS_Hall] ?
Reply | -0.249

* * *

- Procedure text: folding stability dG unfold (combined trypsin and chymotrypsin); higher = more stable
Recorded folding stability dG unfold by entry

| Residue sequence | folding stability dG unfold |
| --- | --- |
| SAWKIWIEFTPGDPGDTYQIRIDPNSPNLEALLKELAQMFKYEVKDAEVEYNPNGSVWVEFKVDELKPPSAG [r14_655_TrROS] | 2.37 kcal/mol |
| SAGGPSVDIDPRLNEDGTPYVLATLHIVPVHSDGSSSSADIPVVFDSLDDLLAFVKAISPGSAKVSLSAGGS [r16_652_TrMRF] | 0.959 kcal/mol |
| SAGGSAGGSAGEIENPSLLSQIVPRKVKVTTEIRKLPNGSYETVTTVTYGSTTTTTTSSGATSAGGSAGGSA [r18_335_JUSTAS] | 0.0269 kcal/mol |
| SAGGSAGGSAGGSGSITITYSSDGDKYSATFTVPDGTVVTVPNMSVDEAKKVAEKFLKSSAGGSAGGSAGGS [r4_383_JUSTAS] | 0.659 kcal/mol |

Ask | Suppose we examine the sequence SAGGSEKVTIELEFRNPETGELIATVKIELERLPNGEIKAKIEFTNLPEGVELSEEMKKLLEELLKSAGGSA [r2_7_TrROS_Hall] ; what folding stability dG unfold value has been reported?
Reply | 2.77 kcal/mol

Ask | Give the measured folding stability dG unfold of SAGGSAGGWFYIMFPIPPGYKVEAEWKFPNGPKVKSEIHPDGPIMITIPPGMANMPDFEIKIEPSAGGSAGG [r6_237_TrROS] .
Reply | 3.2 kcal/mol

Ask | Quick one: folding stability dG unfold of SAGGVVEVEVPDLSLEEALERVREEYPDVPEFTLTLPSGERVEFRVEGDRVEVVRREPLGPRPPELESAGGS [r8_225_JUSTAS] ?
Reply | 1.54 kcal/mol

Ask | What does the data say about its folding stability dG unfold? Entry: SAGGSAGGSAGTLEALKNLKPGETVTLRVELRVERRYLDPNGKEHTEEVSTVTLELTLKPSAGGSAGGSAGG [r11_36_TrROS_Hall]
Reply | 3.49 kcal/mol

Ask | Can you look up the measured folding stability dG unfold of SAGGMVKTITKPMPLEELEKVYEEAKEAIEAGYEVIFTYPLPDGTTITIKTDYETKKIVEIKTSKPVSSAGG [r13_873_JUSTAS] for me?
Reply | 0.687 kcal/mol

Ask | What folding stability dG unfold value was documented for this sequence, SAMKVTITVTKHTLPDGTPYYTVTITDPSTGKTFSGPVSSEEEAKATAQALADKIEAEGTPVTITFTDDSAG [r14_263_JUSTAS] ?
Reply | 3.99 kcal/mol

Ask | What measured folding stability dG unfold goes with SAGGSAGGSAGVVEPTVVSRAPDGTLTVVLNLPDGSTRTVTDPTNVTIGDRPINALTNASSAGGSAGGSAGG [r11_1017_JUSTAS] ?
Reply | 0.222 kcal/mol

Ask | If you can, please state the reported folding stability dG unfold value of SAGGSAGGSATATVTPHEGAWTVTVTGPDSTETFTFEADEETVREFVELLKAPDVDIDPVPGSAGGSAGGSA [r18_103_TrMRF] .
Reply | 1.46 kcal/mol

Ask | Returns the measured folding stability dG unfold for the input sequence. Input: SAGGMKIEVRPLPGDGFVVRLPGDVVALIDPSTGEAVAFFPDGSVARLTITRDPDRPEFTITIEPVGSAGGS [r8_186_TrMRF]
Reply | 1.83 kcal/mol

Ask | # input sequence: SAGGMITVLEEEVEERGDELVVTRLVRVSSEEDVEALANDGVPDTAREVRRLPDGTLLAELTETVPPPSAGG [r13_506_JUSTAS] ; wanted: its folding stability dG unfold
Reply | < -1 kcal/mol
